Each record here notes measured pIC50.
experimental.system: Kras and SOS1 (biotin-tagged human Kras loaded with GDP, His-tagged human SOS1) (Homo sapiens, UniProt P01116, G12D)
Construct: made in house; host or cells: E. coli (stated for Kras only)
Sequence (P01116 1-188 isoform P01116-2 G12D): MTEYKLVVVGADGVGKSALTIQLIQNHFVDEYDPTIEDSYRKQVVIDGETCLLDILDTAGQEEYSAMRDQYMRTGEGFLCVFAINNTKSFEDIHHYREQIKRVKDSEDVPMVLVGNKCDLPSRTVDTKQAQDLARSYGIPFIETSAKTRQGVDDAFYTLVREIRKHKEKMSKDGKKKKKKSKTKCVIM
assay.explanation: Protein-protein interaction inhibition between Kras and SOS1 (KrasGl2D-SOS PPI) using AlphaScreen
Type: binding
test.context: AlphaScreen; biotin-tagged human Kras loaded with GDP, His-tagged human SOS1; read-out: KRAS G12D-SOS PPI IC50
pIC50: −log10 of the molar value. Positions of bridges follow the written chain, without caps; N, C: chain ends. Non-standard residues stand in square brackets, D forms with d. Residues, ends and D or L forms follow the SMILES beside them. *: point of attachment. hPhe(3-Cl-4-CF3) = N[C@@H](CCc1ccc(C(F)(F)F)c(Cl)c1)C(=O)O; NMePhe(3,4-F2) = CN[C@@H](Cc1ccc(F)c(F)c1)C(=O)O; NMePhe(4-Me) = CN[C@@H](Cc1ccc(C)cc1)C(=O)O; NMeCha = CN[C@@H](CC1CCCCC1)C(=O)O; NMeChg = CN[C@H](C(=O)O)C1CCCCC1; NMeI = CC[C@H](C)[C@H](NC)C(=O)O; NMeD = CN[C@@H](CC(=O)O)C(=O)O; NMeL = CN[C@@H](CC(C)C)C(=O)O; NMeA = CN[C@@H](C)C(=O)O; Piperidide = C1CCN(*)CC1; Ac5c = NC1(C(=O)O)CCCC1; Aze = O=C(O)[C@@H]1CCN1; Nva = CCC[C@H](N)C(=O)O; Sar = CNCC(=O)O

compound: CC[C@H](C)[C@@H]1NC(=O)[C@H](CC(C)C)N(C)C(=O)C[C@@H](C(=O)N(C)C)N(C)C(=O)[C@H]([C@@H](C)CC)N(C)C(=O)C2(CCCC2)NC(=O)[C@H](Cc2ccc(F)c(F)c2)N(C)C(=O)[C@H](CCc2ccc(C(F)(F)F)c(Cl)c2)NC(=O)CN(C)C(=O)[C@H](Cc2ccc(C)cc2)N(C)C(=O)[C@@H]2CCN2C(=O)[C@H](C)N(C)C1=O [Compound 1943] ([NMeL]I[NMeA][Aze][NMePhe(4-Me)][Sar][hPhe(3-Cl-4-CF3)][NMePhe(3,4-F2)][Ac5c][NMeI][NMeD]-NMe2; lactam N-11)
pIC50: 8.10
--
compound: CCC[C@@H]1NC(=O)[C@H](CC(C)C)N(C)C(=O)C[C@@H](C(=O)N2CCCCC2)N(C)C(=O)[C@H](C2CCCCC2)N(C)C(=O)C2(CCCC2)NC(=O)[C@@H]2CCCN2C(=O)[C@H](CCc2ccc(C(F)(F)F)c(Cl)c2)NC(=O)CN(C)C(=O)[C@H](CC2CCCCC2)N(C)C(=O)CN(C)C(=O)CN(C)C1=O [Compound 495] ([NMeL][Nva][Sar][Sar][NMeCha][Sar][hPhe(3-Cl-4-CF3)]P[Ac5c][NMeChg][NMeD]-Piperidide; lactam N-11)
pIC50: 8.49

###

experimental.system: Kras and SOS1 (biotin-tagged human Kras loaded with GDP, His-tagged human SOS1) (Homo sapiens, UniProt P01116, G12D)
Construct: made in house; host or cells: E. coli (stated for Kras only)
assay.explanation: Protein-protein interaction inhibition between Kras and SOS1 (KrasGl2D-SOS PPI) using AlphaScreen
Assay type: binding
test.context: AlphaScreen; biotin-tagged human Kras loaded with GDP, His-tagged human SOS1; read-out: KRAS G12D-SOS PPI IC50
Positions of bridges follow the written chain, without caps; N, C: chain ends. Non-standard residues stand in square brackets, D forms with d. Residues, ends and D or L forms follow the SMILES beside them. *: point of attachment. hPhe(3-Cl-4-CF3) = N[C@@H](CCc1ccc(C(F)(F)F)c(Cl)c1)C(=O)O; NMePhe(4-Me) = CN[C@@H](Cc1ccc(C)cc1)C(=O)O; NMeI = CC[C@H](C)[C@H](NC)C(=O)O; N(CH2CH2)2CF2 = FC1(F)CCN(*)CC1; NMeD = CN[C@@H](CC(=O)O)C(=O)O; NMeL = CN[C@@H](CC(C)C)C(=O)O; NMeA = CN[C@@H](C)C(=O)O; Ac5c = NC1(C(=O)O)CCCC1; Aze = O=C(O)[C@@H]1CCN1; Sar = CNCC(=O)O
readout: IC50

molecule: CC[C@H](C)[C@@H]1NC(=O)[C@H](CC(C)C)N(C)C(=O)C[C@@H](C(=O)N(C)C)N(C)C(=O)[C@H]([C@@H](C)CC)N(C)C(=O)C2(CCCC2)NC(=O)[C@H](CC(=O)N2CCC(F)(F)CC2)N(C)C(=O)[C@H](CCc2ccc(C(F)(F)F)c(Cl)c2)NC(=O)CN(C)C(=O)[C@H](Cc2ccc(C)cc2)N(C)C(=O)[C@@H]2CCN2C(=O)[C@H](C)N(C)C1=O [Compound 1980] ([NMeL]I[NMeA][Aze][NMePhe(4-Me)][Sar][hPhe(3-Cl-4-CF3)][NMeD](N(CH2CH2)2CF2)[Ac5c][NMeI][NMeD]-NMe2; lactam N-11)
readout: IC50
result.value: 1.5 nM

###

experimental.system: Kras and SOS1 (biotin-tagged human Kras loaded with GDP, His-tagged human SOS1) (Homo sapiens, UniProt P01116, G12D)
Construct: made in house; host or cells: E. coli (stated for Kras only)
assay.explanation: Protein-protein interaction inhibition between Kras and SOS1 (KrasGl2D-SOS PPI) using AlphaScreen
Format: binding
test.context: AlphaScreen; biotin-tagged human Kras loaded with GDP, His-tagged human SOS1; read-out: KRAS G12D-SOS PPI IC50
pIC50: −log10 of the molar value. Starred links: 1 amine or outer side, 2 acyl side, 3 side chain; linkers in the order of their positions; H or OH if unused. Positions of bridges follow the written chain, without caps; N, C: chain ends. Non-standard residues stand in square brackets, D forms with d. Residues, ends and D or L forms follow the SMILES beside them. *: point of attachment. hPhe(3-Cl-4-CF3) = N[C@@H](CCc1ccc(C(F)(F)F)c(Cl)c1)C(=O)O; hPhe(3-F,4-CF3) = N[C@@H](CCc1ccc(C(F)(F)F)c(F)c1)C(=O)O; NMeAla(4-thiazolyl) = CN[C@@H](Cc1cscn1)C(=O)O; X67 = O=C([C@H](CCc1cc(F)c(F)cc1F)N[*:1])[*:2]; NMePhe(4-Cl) = CN[C@@H](Cc1ccc(Cl)cc1)C(=O)O; NMePhe(4-Me) = CN[C@@H](Cc1ccc(C)cc1)C(=O)O; NMePhe(2-Me) = CN[C@@H](Cc1ccccc1C)C(=O)O; NMedβ3hAla = C[C@H](CC(=O)[*:2])N(C)[*:1]; NMeCha = CN[C@@H](CC1CCCCC1)C(=O)O; NMeF = CN[C@@H](Cc1ccccc1)C(=O)O; NMeI = CC[C@H](C)[C@H](NC)C(=O)O; Cha = N[C@@H](CC1CCCCC1)C(=O)O; NMeD = CN[C@@H](CC(=O)O)C(=O)O; NMeL = CN[C@@H](CC(C)C)C(=O)O; NMeV = CN[C@H](C(=O)O)C(C)C; d(β3hA) = C[C@@H](N)CC(=O)O; NMeS = CN[C@@H](CO)C(=O)O; NMeA = CN[C@@H](C)C(=O)O; Piperidide = C1CCN(*)CC1; Ac5c = NC1(C(=O)O)CCCC1; Aze = O=C(O)[C@@H]1CCN1; Sar = CNCC(=O)O
# pIC50 >= 8 gives 1, anything below gives -1

molecule: CC[C@H](C)[C@@H]1NC(=O)[C@H](C)N(C)C(=O)C[C@@H](C(=O)N2CCCCC2)N(C)C(=O)[C@H](C(C)C)N(C)C(=O)C2(CCCC2)NC(=O)[C@@H]2CCCN2C(=O)[C@H](CCc2ccc(C(F)(F)F)c(F)c2)NC(=O)CN(C)C(=O)[C@H](CC2CCCCC2)N(C)C(=O)CN(C)C(=O)CN(C)C1=O [Compound 266] ([NMeA]I[Sar][Sar][NMeCha][Sar][hPhe(3-F,4-CF3)]P[Ac5c][NMeV][NMeD]-Piperidide; lactam N-11)
assigned.class: 1
//
molecule: CC[C@H](C)[C@@H]1NC(=O)[C@H](CC(C)C)N(C)C(=O)C[C@@H](C(=O)N(C)C)N(C)C(=O)[C@H](C(C)C)N(C)C(=O)C2(CCCC2)NC(=O)[C@@H]2CCCN2C(=O)[C@H](CCc2ccc(C(F)(F)F)c(Cl)c2)NC(=O)CN(C)C(=O)[C@H](CC2CCCCC2)N(C)C(=O)[C@@H]2CCN2C(=O)[C@H](C)N(C)C1=O [Compound 1728] ([NMeL]I[NMeA][Aze][NMeCha][Sar][hPhe(3-Cl-4-CF3)]P[Ac5c][NMeV][NMeD]-NMe2; lactam N-11)
assigned.class: 1
//
molecule: CC[C@H](C)[C@@H]1NC(=O)[C@H](CC(C)C)N(C)C(=O)C[C@@H](C)N(C)C(=O)[C@H](C(C)C)N(C)C(=O)C2(CCCC2)NC(=O)[C@@H]2CCCN2C(=O)[C@H](CCc2ccc(C(F)(F)F)c(Cl)c2)NC(=O)CN(C)C(=O)[C@H](Cc2ccccc2C)N(C)C(=O)CN(C)C(=O)CN(C)C1=O [Compound 1550] (cyclo([Ac5c][NMeV][NMedβ3hAla][NMeL]I[Sar][Sar][NMePhe(2-Me)][Sar][hPhe(3-Cl-4-CF3)]P))
assigned.class: -1
//
molecule: CC[C@H](C)[C@@H]1NC(=O)[C@H](CC(C)C)N(C)C(=O)C[C@@H](C(=O)N(C)C)N(C)C(=O)[C@H]([C@@H](C)CC)N(C)C(=O)[C@H](C(C)C)NC(=O)[C@H](Cc2cscn2)N(C)C(=O)[C@H](CCc2ccc(C(F)(F)F)c(Cl)c2)NC(=O)CN(C)C(=O)[C@H](Cc2ccc(C)cc2)N(C)C(=O)[C@@H]2CCN2C(=O)[C@H](C)N(C)C1=O [Compound 982] ([NMeL]I[NMeA][Aze][NMePhe(4-Me)][Sar][hPhe(3-Cl-4-CF3)][NMeAla(4-thiazolyl)]V[NMeI][NMeD]-NMe2; lactam N-11)
assigned.class: -1
//
molecule: CC[C@H](C)[C@@H]1NC(=O)[C@H](C)N(C)C(=O)C[C@@H](C)NC(=O)[C@H](CC(C)C)N(C)C(=O)[C@H](Cc2ccccc2)N(C)C(=O)[C@H](CC(C)C)NC(=O)[C@H](CCc2cc(F)c(F)cc2F)NC(=O)CN(C)C(=O)[C@H](Cc2ccc(Cl)cc2)N(C)C(=O)CN(C)C(=O)CN(C)C1=O [Compound 2087] (cyclo(I[Sar][Sar][NMePhe(4-Cl)][Sar][X67]L[NMeF][NMeL][d(β3hA)][NMeA]))
assigned.class: -1
//
molecule: CC(C)C[C@H]1C(=O)N[C@@H](CC2CCCCC2)C(=O)N(C)CC(=O)N(C)CC(=O)N(C)[C@@H](CC2CCCCC2)C(=O)N(C)CC(=O)N[C@@H](CCc2ccc(C(F)(F)F)c(Cl)c2)C(=O)N2CCC[C@H]2C(=O)NC2(CCCC2)C(=O)N(C)[C@@H](C(C)C)C(=O)N(C)[C@H](C(=O)N2CCCCC2)CC(=O)N1C [Compound 986] ([NMeL][Cha][Sar][Sar][NMeCha][Sar][hPhe(3-Cl-4-CF3)]P[Ac5c][NMeV][NMeD]-Piperidide; lactam N-11)
assigned.class: -1
//
molecule: CC[C@H](C)[C@@H]1NC(=O)[C@H](COC)N(C)C(=O)C[C@@H](C(=O)N2CCCCC2)N(C)C(=O)[C@H](C(C)C)N(C)C(=O)C2(CCCC2)NC(=O)[C@@H]2CCCN2C(=O)[C@H](CCc2ccc(C(F)(F)F)c(Cl)c2)NC(=O)CN(C)C(=O)[C@H](CC2CCCCC2)N(C)C(=O)[C@@H]2CCN2C(=O)[C@H](C)N(C)C1=O [Compound 636] ([NMeS](Me)I[NMeA][Aze][NMeCha][Sar][hPhe(3-Cl-4-CF3)]P[Ac5c][NMeV][NMeD]-Piperidide; lactam N-11)
assigned.class: 1
